This section lists pKi readings for human dopamine D3 receptors (Homo sapiens).
Schema: pKi number; meaning minus log10 of the concentration expressed in molar units.

Study these solved cases before continuing.
molecule	target-or-system	pKi
Cc1cn(CCCCN2CCN(c3cc(C(C)(C)C)nc(C(C)(C)C)n3)CC2)c(=O)nc1O [Example 9]	human dopamine D3 receptors (Homo sapiens)	9.13
O=c1[nH]c(=O)n(CCCCN2CCN(c3cccc(Cl)c3Cl)CC2)cc1F [Example 79]	human dopamine D3 receptors (Homo sapiens)	9.07

Kindly consider the entry below.
Input: State the recorded pKi for this entry: CCCc1cc(N2CCN(CCCCn3ccc(-c4ccsc4)nc3=O)CC2)nc(C(C)(C)C)n1 [Example 93]
Output: 9.19

====

This section lists pKi readings for human dopamine D3 receptors (Homo sapiens).
Schema: pKi number; meaning minus log10 of the concentration expressed in molar units.

compound	pKi
Cc1cn(CCCCN2CCN(c3cccc(C(F)(F)F)c3)CC2)c(=O)[nH]c1=O	8.89
CC(C)(C)c1nc(C2CCC2)cc(N2CCN(CCCCn3ccc(=O)[nH]c3=O)CC2)n1	8.82
Cc1cn(CCCCN2CCN(c3cc(C(F)(F)F)nc(C(C)(C)C)n3)CC2)c(=O)nc1NCc1ccccc1	8.50
O=c1nc(-c2ccccc2)ccn1CCCCN1CCN(c2cccc(Cl)c2Cl)CC1	8.59

Input: Please tell me: pKi of `Cc1cn(CCCCN2CCN(c3cc(C(F)(F)F)nc(C(C)(C)C)n3)CC2)c(=O)nc1-c1ccccc1` , system human dopamine D3 receptors (Homo sapiens)?
Output: 8.09

Input: Please tell me: pKi of `CCCc1cc(N2CCN(CCCCn3ccc(-c4ccccc4C)nc3=O)CC2)nc(C(C)(C)C)n1` , system human dopamine D3 receptors (Homo sapiens)?
Output: 9.02

Input: Please tell me: pKi of `CCc1cn(CCCCN2CCN(c3cc(C(F)(F)F)nc(C(C)(C)C)n3)CC2)c(=O)[nH]c1=O` , system human dopamine D3 receptors (Homo sapiens)?
Output: 8.78

Input: Please tell me: pKi of `CCCc1cc(N2CCN(CCCCn3ccc(C4CCCCC4)nc3=O)CC2)nc(C(C)(C)C)n1` , system human dopamine D3 receptors (Homo sapiens)?
Output: 8.86

Input: Please tell me: pKi of `CCCc1cc(N2CCN(CCCCn3ccc(-c4cccc(F)c4)nc3=O)CC2)nc(C(C)(C)C)n1` , system human dopamine D3 receptors (Homo sapiens)?
Output: 8.83

Input: Please tell me: pKi of `CCc1ccn(CCCCN2CCN(c3cc(C(F)(F)F)nc(C(C)(C)C)n3)CC2)c(=O)n1` , system human dopamine D3 receptors (Homo sapiens)?
Output: 8.19

Input: Please tell me: pKi of `CC(C)(C)c1nc(N2CCN(CCCCn3ccc(-c4ccccc4F)nc3=O)CC2)cc(C(F)(F)F)n1` , system human dopamine D3 receptors (Homo sapiens)?
Output: 8.00

Input: Please tell me: pKi of `Cc1cn(CCCCN2CCN(c3cccc(Cl)c3Cl)CC2)c(=O)[nH]c1=O` , system human dopamine D3 receptors (Homo sapiens)?
Output: 9.57

Input: Please tell me: pKi of `Cc1cn(CCCCN2CCN(c3cc(C4CCC4)nc(C(C)(C)C)n3)CC2)c(=O)nc1O` , system human dopamine D3 receptors (Homo sapiens)?
Output: 8.94

Input: Please tell me: pKi of `CC(C)c1ccn(CCCCN2CCN(c3cc(C(F)(F)F)nc(C(C)(C)C)n3)CC2)c(=O)n1` , system human dopamine D3 receptors (Homo sapiens)?
Output: 8.37

Input: Please tell me: pKi of `CC(C)(C)c1nc(N2CCN(CCCCn3ccc(O)nc3=O)CC2)cc(C(F)(F)F)n1` , system human dopamine D3 receptors (Homo sapiens)?
Output: 8.73

Input: Please tell me: pKi of `CC(C)(C)c1ccn(CCCCN2CCN(c3cc(C(F)(F)F)nc(C(C)(C)C)n3)CC2)c(=O)n1` , system human dopamine D3 receptors (Homo sapiens)?
Output: 8.58

Input: Please tell me: pKi of `CCCc1cc(N2CCN(CCCCn3ccc(C4CCC4)nc3=O)CC2)nc(C(C)(C)C)n1` , system human dopamine D3 receptors (Homo sapiens)?
Output: 8.82

Input: Please tell me: pKi of `CCCc1cc(N2CCN(CCCCn3ccc(OCC)nc3=O)CC2)nc(C(C)(C)C)n1` , system human dopamine D3 receptors (Homo sapiens)?
Output: 8.61

Input: Please tell me: pKi of CC(=O)O.CCCc1cc(N2CCN(CCCCn3cc(Cl)c(=O)[nH]c3=O)CC2)nc(C(C)(C)C)n1 [Example 77, acetate] , system human dopamine D3 receptors (Homo sapiens)?
Output: 9.13

Input: Please tell me: pKi of CCCc1cc(N2CCN(C(C)CCCn3ccc(=O)[nH]c3=O)CC2)nc(C(C)(C)C)n1 (stereo not shown) , system human dopamine D3 receptors (Homo sapiens)?
Output: 8.23

Input: Please tell me: pKi of `CCCc1cc(N2CCN(CCCCn3cc(CC)c(=O)[nH]c3=O)CC2)nc(C(C)(C)C)n1` , system human dopamine D3 receptors (Homo sapiens)?
Output: 9.12
